Target: NDM-1 (Klebsiella pneumoniae, UniProt C7C422)
Sequence (C7C422 29-270, looked up, species assumed): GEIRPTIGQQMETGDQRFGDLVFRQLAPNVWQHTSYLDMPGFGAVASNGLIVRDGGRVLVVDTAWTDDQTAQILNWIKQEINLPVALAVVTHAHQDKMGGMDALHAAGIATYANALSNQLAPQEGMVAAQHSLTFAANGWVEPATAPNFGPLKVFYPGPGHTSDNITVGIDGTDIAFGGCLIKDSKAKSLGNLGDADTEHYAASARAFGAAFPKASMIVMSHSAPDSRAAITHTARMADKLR
Experiment: Enzymatic metallo-β-lactamase assay on purified NDM-1
Type: biochemical
Settings: log of IC50; ± SEM of logIC50
Procedure: A few inhibitors were tested up to 1600 μM to ensure nearly complete inhibition. […] Inhibitors were dissolved in DMSO but diluted to assure <2% DMSO in measured assay. Absorbance was measured at 482 nm (nitrocefin) and 300 nm (imipenem) on a SpectraMax M4 spectrophotometer. […]
The entries below are paired with their reported logIC50 NDM-1.

Study these solved cases before continuing.
O=C(Cc1cccs1)NC(c1ccccc1O)P(=O)(O)O (centres unmarked)
1.94 ± 0.08 log10(IC50/μM)
O=C(Cc1cc2ccccc2s1)NC(c1ccccc1O)P(=O)(O)O (centres unmarked)
1.81 ± 0.11 log10(IC50/μM)
O=C(NC(c1ccccc1O)P(=O)(O)O)c1cccs1 (centres unmarked)
2.34 ± 0.09 log10(IC50/μM)
O=C(Cc1csc2ccccc12)NC(c1ccccc1O)P(=O)(O)O (centres unmarked)
1.83 ± 0.05 log10(IC50/μM)
O=C(NC(c1ccccc1O)P(=O)(O)O)c1ccsc1 (centres unmarked)
1.99 ± 0.13 log10(IC50/μM)

## Task Quick one: logIC50 NDM-1 of O=C(NC(c1ccccc1O)P(=O)(O)O)c1ccccc1 (centres unmarked) ?
## Result 1.93 ± 0.09 log10(IC50/μM)

## Task Quick one: logIC50 NDM-1 of O=C(NC(c1ccccc1O)P(=O)(O)O)c1csc2c1CCCC2 (centres unmarked) ?
## Result 1.48 ± 0.03 log10(IC50/μM)

## Task Quick one: logIC50 NDM-1 of O=C(Cc1ccsc1)NC(c1ccccc1O)P(=O)(O)O (centres unmarked) ?
## Result 2.37 ± 0.07 log10(IC50/μM)
